- System Name: c-Kit(V654A) (Homo sapiens, UniProt P10721, V654A)
- Protocol Details: c-Kit(V654A) assay
- Assay type: biochemical
- Test Context: Table 1; 200 μM ATP
# label = class 1 if IC50 < 1 nM else class 0

>>> df
                                   compound    label
0  COCCOc1cc2[nH]nc(-c3cc(-c4ccc(C(=O)N5CCOC[C@H]5COC)cc4)no3)c2cc1F [A111]  class 0
1  COCCOc1cc2[nH]nc(-c3cc(-c4ccc(C(=O)N5CC(N6CCN(C)CC6)C5)cc4)no3)c2cc1F [A102]  class 0
2  COCCOc1cc2[nH]nc(-c3cc(-c4ccc(C(=O)N5C[C@H]6C[C@@H]5CO6)cc4)no3)c2cc1F [A163]  class 1
3  COCCOc1cc2[nH]nc(-c3cc(-c4ccc(OCCN5CCNCC5)cc4)no3)c2cc1F [A134]  class 0
4  COCCOc1cc2[nH]nc(-c3cc(-c4ccc(C(=O)N5CC(N6CCO[C@H](C)C6)C5)cc4)no3)c2cc1F [A211]  class 0
5  COCCOc1cc2[nH]nc(-c3cc(-c4ccc(C(=O)N5CC(N6CCO[C@@H](C)C6)C5)cc4)no3)c2cc1F [A210]  class 1
6  COCCOc1cc2[nH]nc(-c3cc(-c4ccc(N5CCN(C)CC5)nc4)no3)c2cc1F [A39]  class 0

----------
- System Name: mutant cKIT (560-576 and V654A) in GIST430/654 cell line (Homo sapiens (Human), UniProt P10721, DEL560-576/V654A)
- Sequence (P10721 other isoform, or with tags, fused parts or gaps V654A/del 1-25/del 560-576 limits assumed): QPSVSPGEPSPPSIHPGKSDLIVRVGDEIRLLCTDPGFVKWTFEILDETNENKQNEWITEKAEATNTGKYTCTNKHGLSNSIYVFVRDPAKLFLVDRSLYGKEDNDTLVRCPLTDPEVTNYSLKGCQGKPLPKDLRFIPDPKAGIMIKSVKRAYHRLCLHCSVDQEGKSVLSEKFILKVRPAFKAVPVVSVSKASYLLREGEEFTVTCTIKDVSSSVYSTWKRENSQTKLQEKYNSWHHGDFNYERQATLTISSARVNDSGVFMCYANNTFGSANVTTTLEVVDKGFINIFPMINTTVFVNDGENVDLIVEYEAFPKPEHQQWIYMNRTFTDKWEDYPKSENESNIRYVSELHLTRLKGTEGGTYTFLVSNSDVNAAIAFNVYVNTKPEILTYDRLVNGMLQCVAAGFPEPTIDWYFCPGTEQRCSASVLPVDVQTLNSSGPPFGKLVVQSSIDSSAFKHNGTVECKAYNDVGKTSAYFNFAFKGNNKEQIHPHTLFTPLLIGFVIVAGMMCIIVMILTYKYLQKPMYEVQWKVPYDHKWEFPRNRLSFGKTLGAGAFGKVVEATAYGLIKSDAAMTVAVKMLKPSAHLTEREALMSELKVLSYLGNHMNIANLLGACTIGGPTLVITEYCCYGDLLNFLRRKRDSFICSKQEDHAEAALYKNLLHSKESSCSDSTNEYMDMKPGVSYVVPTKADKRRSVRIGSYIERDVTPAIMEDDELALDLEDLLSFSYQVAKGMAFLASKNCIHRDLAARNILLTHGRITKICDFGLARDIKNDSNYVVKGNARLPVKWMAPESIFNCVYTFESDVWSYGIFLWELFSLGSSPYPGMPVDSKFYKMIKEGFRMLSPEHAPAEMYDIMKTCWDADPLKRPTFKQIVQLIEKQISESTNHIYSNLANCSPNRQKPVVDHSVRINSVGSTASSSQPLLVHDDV
- Protocol Details: Cellular testing of cKIT mutant inhibitors: phospho-Y307-cKIT Luminex assay in GIST430/654 cells
- Type: cell-based
- Test Context: Table 1; cKIT autophosphorylation, compounds 45 min; read-out: GIST 430/654 IC50
Property Label: IC50 (nM)

>>> df
                                    molecule  value_units  measurement
 0  COCCOc1cc2[nH]nc(-c3cc(-c4ccc(C(=O)N5CC(N6CCN(C7COC7)CC6)C5)cc4)no3)c2cc1F           nM           87
 1  COc1cc2[nH]nc(-c3cc(-c4ccc(C(=O)N5CC(N6CCOCC6)C5)cc4)no3)c2cc1F           nM          110
 2  COCCOc1cc2[nH]nc(-c3cc(-c4ccc(N=S5(=O)CCNCC5)cc4)no3)c2cc1F           nM           80
 3  COCCOc1cc2[nH]nc(-c3cc(-c4ccc(C(=O)N5Cc6cncnc6C5)cc4)no3)c2cc1F           nM           73
 4  COCCOc1cc2[nH]nc(-c3cc(-c4ccc(C(=O)N5CC(N6CC7(COC7)C6)C5)cc4)no3)c2cc1F           nM          290
 5  COCCOc1cc2[nH]nc(-c3cc(-c4ccc(N5CCCNCC5)cc4)no3)c2cc1F           nM          170
 6  COCCOc1cc2[nH]nc(-c3cc(-c4ccc(C(=O)N5CCC6(CCOC6)C5)cc4)no3)c2cc1F (centres unmarked)           nM           23
 7  COCCOc1cc2[nH]nc(-c3cc(-c4ccc(C5CCNCC5(C)C)cc4)no3)c2cc1F (centres unmarked)           nM          110
 8  COCCOc1cc2[nH]nc(-c3cc(-c4ccc(C(=O)N5CCOCC5)cc4)no3)c2cc1F           nM           58
 9  COCCOc1cc2[nH]nc(-c3cc(-c4ccc(C(=O)N5CC(C)(N)C5)cc4)no3)c2cc1F           nM          170
10  COCCOc1cc2[nH]nc(-c3cc(-c4ccc(C(=O)N5CCC6(CC5)COC6)cc4)no3)c2cc1F           nM           28

----------
- System Name: mutant cKIT (560-576 and V654A) in GIST430/654 cell line (Homo sapiens (Human), UniProt P10721, DEL560-576/V654A)
- Protocol Details: Cellular testing of cKIT mutant inhibitors: phospho-Y307-cKIT Luminex assay in GIST430/654 cells
- Type: cell-based
- Test Context: Table 2, corresponding triazole derivatives; read-out: GIST 430/654 IC50
pIC50: −log10 of the molar value.
Property Label: pIC50

>>> df
                                   molecule  measurement
0  COCCOc1cc2[nH]nc(-c3cn(-c4ccc(C5CCNCC5(C)C)cc4)nn3)c2cc1F (stereo not drawn) [reference compound]         6.92
1  COCCOc1cc2[nH]nc(-c3cn(-c4ccc(C(=O)N5CCN(C)CC5)cc4)nn3)c2cc1F [reference compound]         6.08
2  COCCOc1cc2[nH]nc(-c3cn(-c4ccc(C(=O)N5CCOC[C@@H]5C)cc4)nn3)c2cc1F [reference compound]         6.64
3  COCCOc1cc2[nH]nc(-c3cn(-c4ccc(N5CCN(C)CC5)cc4)nn3)c2cc1F [reference compound]         6.00
4  COCCOc1cc2[nH]nc(-c3cn(-c4ccc(C(=O)N5CC(N6CCOCC6)C5)c(F)c4)nn3)c2cc1F [reference compound]         6.15
5  COCCOc1cc2[nH]nc(-c3cc(-c4ccc(C(=O)N5CCC[C@H]5CO)cc4)no3)c2cc1F [drawing 57, reference compound]         6.04
6  COCCOc1ccc2c(-c3cn(-c4ccc(C(=O)N5CCN(C)C[C@@H]5C)cc4)nn3)n[nH]c2c1 [reference compound]         6.49
7  COCCOc1cc2[nH]nc(-c3cn(-c4ccc(C(=O)N5C[C@H]6COC[C@H]6C5)cc4)nn3)c2cc1F [reference compound]         6.33
8  COCCOc1cc2[nH]nc(-c3cn(-c4ccc(C(=O)N5CC(N6CCOCC6)C5)c(C)c4)nn3)c2cc1F [reference compound]         6.06

----------
Reported IC50 values for the following molecules.
- System Name: c-Kit(V654A) (Homo sapiens, UniProt P10721, V654A)
- Protocol Details: c-Kit(V654A) assay
- Type: biochemical
- Test Context: Table 2, corresponding triazole derivatives
Property Label: IC50 (nM)

                                   molecule  measurement
0  COCCOc1cc2[nH]nc(-c3cn(-c4ccc(C(=O)N5CC(C#N)C5)cc4)nn3)c2cc1F [reference compound]           13
1  COCCOc1cc2[nH]nc(-c3cn(-c4ccc(C(=O)N(C)C)cc4)nn3)c2cc1F [reference compound]           11
2  COCCOc1cc2[nH]nc(-c3cn(-c4ccc(C(=O)N5CCC[C@H]5C(C)(C)O)cc4)nn3)c2cc1F [reference compound]          2.5

----------
- System Name: mutant cKIT (560-576 and V654A) in GIST430/654 cell line (Homo sapiens (Human), UniProt P10721, DEL560-576/V654A)
- Protocol Details: Cellular testing of cKIT mutant inhibitors: phospho-Y307-cKIT Luminex assay in GIST430/654 cells
- Format: cell-based
- Test Context: Table 1; cKIT autophosphorylation, compounds 45 min; read-out: GIST 430/654 IC50
- Experimental: Assay Principle for Cellular Testing of cKIT Mutant Inhibitors The GIST430/654 cell line expressing mutated constitutively active cKIT receptor tyrosine kinase ([…]560-576 and V654A) was employed for assessing cellular potency of compounds. Cellular activity of mutant cKIT was determined by the degree of cKIT autophosphorylation at tyrosine 307 using a Luminex-based bead assay. […] The amount of phospho-Y307-cKIT was determined in a Luminex 200 instrument measuring 100 events per well within 60 seconds. […]
Reported log10(IC50) values for the following molecules.
Property Label: log10(IC50) (log10 of the value in nM)

>>> print(df.to_string())
                   compound_structure_string  property_label  measurement
 0  COCCOc1cc2[nH]nc(-c3cc(-c4ccc(C(=O)N(C)C)cc4)no3)c2cc1Cl     log10(IC50)         2.20
 1  COCCOc1cc2[nH]nc(-c3cc(-c4ccc(C(=O)N5CCC6(CC5)CN(C)C6)cc4)no3)c2cc1F     log10(IC50)         2.51
 2  COCCOc1cc2[nH]nc(-c3cc(-c4ccc(C(=O)N5CCOC[C@@H]5C)cc4)no3)c2cc1F     log10(IC50)         1.65
 3  COCCOc1cc2[nH]nc(-c3cc(-c4ccc(C(=O)N5CC(N6CCO[C@H](C)C6)C5)cc4)no3)c2cc1F     log10(IC50)         1.59
 4  COCCOc1cc2[nH]nc(-c3cc(-c4ccc(C(=O)N5CC(C)(O)C5)cc4)no3)c2cc1F     log10(IC50)         2.08
 5  COCCOc1cc2[nH]nc(-c3cc(-c4ccc(C(=O)N5CCS(=O)(=O)CC5)cc4)no3)c2cc1F     log10(IC50)         1.75
 6  COCCOc1cc2[nH]nc(-c3cc(-c4ccc(C(=O)N5CCN([C@H]6CCOC6)CC5)cc4)no3)c2cc1F     log10(IC50)         1.68
 7  COCCOc1cc2[nH]nc(-c3cc(-c4ccc(OCCN5CCNCC5)cc4)no3)c2cc1F     log10(IC50)         2.18
 8  COCCOc1cc2[nH]nc(-c3cc(-c4ccc(C(=O)N5CC[C@@H]5CS(C)(=O)=O)cc4)no3)c2cc1F     log10(IC50)         2.04
 9  COCCOc1cc2[nH]nc(-c3cc(-c4ccc(C(=O)N5CCC[C@H]5CO)nc4)no3)c2cc1F     log10(IC50)         2.46
10  COCCOc1cc2[nH]nc(-c3cc(-c4ccc(NC(C)=O)cc4)no3)c2cc1Cl     log10(IC50)         2.11
11  COc1cc2[nH]nc(-c3cc(-c4ccc(C(=O)N5C[C@H]6COC[C@H]6C5)cc4)no3)c2cc1F     log10(IC50)         2.20
12  COCCOc1cc2[nH]nc(-c3cc(-c4ccc(C(=O)N5CC(N6CCC(O)CC6)C5)cc4)no3)c2cc1F     log10(IC50)         2.15
13  COCCOc1cc2[nH]nc(-c3cc(-c4ccc(C(=O)N5CCO[C@@H](C)C5)cc4)no3)c2cc1F     log10(IC50)         1.68
14  COCCOc1cc2[nH]nc(-c3cc(-c4ccc(C(=O)N5CC(N6CCS(=O)(=O)CC6)C5)cc4)no3)c2cc1F     log10(IC50)         2.26
15  COCCOc1cc2[nH]nc(-c3cc(-c4ccc(C(=O)NC5CN(C)C5)cc4)no3)c2cc1F     log10(IC50)         2.63
16  COCCOc1cc2[nH]nc(-c3cc(-c4ccc(C(=O)N5CCN([C@@H]6CCOC6)CC5)cc4)no3)c2cc1F     log10(IC50)         1.78
17  COCCOc1cc2[nH]nc(-c3cc(-c4ccc(C(=O)N5CCOC[C@H]5C)cc4)no3)c2cc1F     log10(IC50)         1.75
18  COCCOc1cc2[nH]nc(-c3cc(-c4ccc(C(=O)N5CC(c6ccncn6)C5)cc4)no3)c2cc1F     log10(IC50)         1.73
